Test system: ULK2
CONDITION PARAMETERS: concentration: 1 μM, replicates: in singlicate; n = 1
MEASURED QUANTITY: %Inh (%)
Give a bare numeral; the unit % is implied.

Lookup: Return %Inh measured with ULK2 given this compound: CCCNC(=O)Nc1ccc(Oc2ncnc3ccn(C)c23)cc1
Found: 10

Lookup: Value wanted: %Inh (ULK2) of entry Cl.c1ccc(Cn2cnc3cc(Nc4ncnc5ccccc45)ccc32)cc1
Found: 0

Lookup: Param readout= %Inh; system= ULK2; entry= C[C@@H]1CC[C@H](C(=O)NC2CCCCC2)CN1c1cc(-c2ccc3c(N)n[nH]c3c2)nc(N)n1 ; returns value.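 Also: KINOMEscan kinase panel screen.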
Found: 0
